Reference source for all entries: ChEMBL document CHEMBL5360534

# ASSAY OVERVIEW: Inhibition of Saccharomyces cerevisiae alpha-glucosidase type I using p-nitrophenyl-alpha-D-glucopyranoside as substrate preincubated for 10 mins followed by substrate addition and measured after 20 mins by spectrophotometric analysis
So I've got a bunch of compounds here, and I need their pIC50 values.
Give only the number. pIC50 is defined as minus log10 of concentration in molar units.

Prompt: Quick one: pIC50 of O=[N+]([O-])c1ccc(-c2nn(-c3ccccc3)cc2-c2nc(-c3ccccc3)c(-c3ccccc3)n2-c2ccc(Br)cc2)cc1 ?
Completion: 4.47

Prompt: Clc1ccc(-n2c(-c3cn(-c4ccccc4)nc3-c3ccc(Br)cc3)nc(-c3ccccc3)c2-c2ccccc2)cc1 ?
Completion: 4.60
